# target-system: T1, HLA-B*08:01 (human)
# T1 construct: MHC monomer first loaded with a UV-sensitive peptide that is cleaved by UV light and exchanged for the test peptide
# procedure-summary: UV peptide exchange ELISA
Entries and their peptide exchange yield
measurement-kind: peptide exchange yield

binder	result
IPASHPVLTL [IPASHPVLTL (SEQ ID NO: 109)]	20 to 50%
RLKVALSTL [RLKVALSTL (SEQ ID NO: 45)]	50 to 75%
FTQNPRVQL [FTQNPRVQL (SEQ ID NO: 116)]	20 to 50%
KMFYRKDVM [KMFYRKDVM (SEQ ID NO: 136)]	50 to 75%
ELLNRIYF [ELLNRIYF (SEQ ID NO: 190)]	20 to 50%
FILGREAGAL [FILGREAGAL (SEQ ID NO: 64)]	20 to 50%
IPIQAHQI [IPIQAHQI (SEQ ID NO: 132)]	50 to 75%
AQLKLVAL [AQLKLVAL (SEQ ID NO: 141)]	20 to 50%
